- ASSAYED TARGET: GDP-bound KRAS protein (aa 1-169), containing both G12C and C118A amino acid substitutions (Homo sapiens, UniProt P01116, C118A/G12C)
- Sequence (P01116 1-169 isoform P01116-2 G12C/C118A): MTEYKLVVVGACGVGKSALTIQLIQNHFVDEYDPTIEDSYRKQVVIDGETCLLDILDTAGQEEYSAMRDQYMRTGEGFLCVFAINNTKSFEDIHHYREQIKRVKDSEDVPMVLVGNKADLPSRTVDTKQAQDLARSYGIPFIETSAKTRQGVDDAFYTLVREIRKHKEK
- ASSAY REMARKS: Coupled nucleotide exchange assay (SOS-mediated, AlphaScreen)
- Format: biochemical
- MEASUREMENT SETUP: 5 min compound pre-incubation
I'd be grateful if you could share measured Coupled exchange IC50 (5 min) for these entries.

[Q] Quick check: Coupled exchange IC50 (5 min) of C=CC(=O)N1CCN(c2nc(=O)n(-c3ccccc3C(C)C)c3nc(-c4nc(N)cc5ccccc45)c(Cl)cc23)[C@@H](C)C1 ?
[A] 0.184 | nda μM

[Q] // Coupled exchange IC50 (5 min) lookup, key: C=CC(=O)N1CCN(c2nc(=O)n(-c3c(OC)cccc3OC)c3nc(-c4ccccc4F)c(Cl)cc23)[C@@H](C)C1
[A] 4.65 | nda μM

[Q] Given C=CC(=O)N1CCN(c2nc(=O)n(-c3c(CC)cccc3CC)c3nc(-c4ccccc4C(C)C)c(Cl)cc23)[C@@H](C)C1 , state its recorded Coupled exchange IC50 (5 min).
[A] 0.103 | nda μM

[Q] Bench note: what Coupled exchange IC50 (5 min) did C=CC(=O)N1CCC(c2cc(=O)n(CC(C)(C)C)c3nc(-c4ccccc4F)c(Cl)cc23)CC1 show?
[A] 35.4 | nda μM

[Q] If you can, please state the reported Coupled exchange IC50 (5 min) value of C=CC(=O)N1CCN(c2nc(=O)n(-c3c(C(C)C)ncnc3C(C)C)c3nc(-c4c(O)cccc4F)c(F)cc23)[C@@H](C)C1 .
[A] 0.1 | nda μM

[Q] Consider the molecule shown here: C=CC(=O)N1CCN(c2nc(=O)n(C)c3nc(-c4c(O)cccc4F)c(Cl)cc23)[C@@H](C)C1 What is its recorded Coupled exchange IC50 (5 min)?
[A] 20.8 | nda μM

[Q] Can you look up the measured Coupled exchange IC50 (5 min) of C=CC(=O)N1CCN(c2nc(=O)n(-c3c(C)cccc3C(C)C)c3nc(-c4nc(N)cc5ccccc45)c(F)cc23)[C@@H](C)C1 (single isomer, unassigned) [Example 71-2-1] for me?
[A] 8.7 | nda μM

[Q] I am curious: what Coupled exchange IC50 (5 min) value has been reported for C=CC(=O)N1CCN(c2nc(=O)n(-c3c(CO)ccnc3C(C)C)c3nc(-c4ccccc4F)c(Cl)cc23)C(C)C1 (atropisomer, axis not shown; (P)) ?
[A] 2.71 | nda μM

[Q] Field request: Coupled exchange IC50 (5 min) | item: C=CC(=O)N1CCN(c2nc(=O)n(-c3c(C)cccc3C(C)C)c3nc(-c4ccccc4F)c(C)cc23)[C@@H](C)C1 [Example 102]
[A] 0.421 | nda μM

[Q] Record request: Coupled exchange IC50 (5 min) value, item C=CC(=O)N1CCN(c2nc(=O)n(-c3c(C)ccnc3C(C)C)c3nc(-c4cc(N)ccc4Cl)c(F)cc23)[C@@H](C)C1 (single isomer, unassigned) [Example 58-8-2]
[A] 2.02 | nda μM

[Q] What measured Coupled exchange IC50 (5 min) goes with C=CC(=O)N1CCN(c2nc(=O)n(-c3c(CC)cncc3CC)c3nc(-c4ccccc4F)c(Cl)cc23)[C@@H](C)C1 ?
[A] 0.653 | nda μM

[Q] // returns reported Coupled exchange IC50 (5 min) for input C=CC(=O)N1CCN(c2nc(=O)n(-c3c(C)ccnc3C(C)C)c3nc(-c4cc(O)cc(Cl)c4Cl)c(F)cc23)[C@@H](C)C1 [Example 58-7]
[A] 0.072 | nda μM

[Q] Would you mind telling me what Coupled exchange IC50 (5 min) value was observed for C=CC(=O)N1CCN(c2nc(=O)n(-c3c(CC)ncnc3CC)c3nc(-c4c(O)cccc4F)c(Cl)cc23)[C@@H](C)C1 ?
[A] 0.098 | nda μM

[Q] Suppose we examine the molecule C=CC(=O)N1CCN(c2nc(=O)n(-c3scnc3CC)c3nc(-c4c(O)cccc4F)c(Cl)cc23)[C@@H](C)C1 ; what Coupled exchange IC50 (5 min) value has been reported?
[A] 0.159 | nda μM

[Q] Form field: reported Coupled exchange IC50 (5 min) of C=CC(=O)N1CCN(c2nc(=O)n(-c3n[nH]cc3C(C)C)c3nc(-c4ccccc4F)c(Cl)cc23)[C@@H](C)C1
[A] 0.417 | nda μM

[Q] # Coupled exchange IC50 (5 min) lookup, item C=CC(=O)N1CCN(c2nc(=O)n(-c3ccccc3C(C)C)c3nc(-c4ccncc4F)c(Cl)cc23)[C@@H](C)C1
[A] 3.51 | nda μM

[Q] Return reported Coupled exchange IC50 (5 min); argument: C=CC(=O)N1CCN(c2nc(=O)n(-c3c(C4CC4)ccnc3C)c3nc(-c4c(O)cccc4F)c(F)cc23)[C@@H](C)C1 (single isomer, unassigned) [Example 58-19-2]
[A] 0.226 | nda μM

[Q] Which Coupled exchange IC50 (5 min) reading was recorded for the molecule C=CC(=O)N1CCN(c2nc(=O)n(-c3c(C4CC4)ncnc3C3CC3)c3nc(-c4ccccc4F)c(Cl)cc23)[C@@H](C)C1 ?
[A] 0.08 | nda μM

[Q] Name the reported Coupled exchange IC50 (5 min) value associated with the molecule C=CC(=O)N1CCN(c2nc(=O)n(-c3c(CC)cccc3CC)c3nc(N4CCC(CC)(CC)C4)c(Cl)cc23)[C@@H](C)C1
[A] 28.2 | nda μM

[Q] Name the recorded Coupled exchange IC50 (5 min) for C=CC(=O)N1CC=C(c2cc(=O)n(CC(C)(C)C)c3nc(-c4ccccc4F)c(Cl)cc23)CC1 .
[A] 6.22 | nda μM

[Q] Quick one: Coupled exchange IC50 (5 min) for C=CC(=O)N1CCN(c2nc(=O)n(-c3c(C)cncc3C)c3nc(-c4c(O)cccc4F)c(Cl)cc23)[C@@H](C)C1 ?
[A] 0.724 | nda μM

[Q] Which value of Coupled exchange IC50 (5 min) has been reported for C=CC(=O)N1CCN(c2nc(=O)n(-c3nccn3C(C)C)c3cc(-c4ccccc4F)c(Cl)cc23)[C@@H](C)C1 in the records?
[A] 0.2 | nda μM

[Q] Which Coupled exchange IC50 (5 min) value belongs to C=CC(=O)N1CCN(c2nc(=O)n(-c3ccncc3C3CC3)c3cc(-c4c(O)cccc4F)c(Cl)cc23)[C@@H](C)C1 ?
[A] 0.147 | nda μM

[Q] Any idea what its Coupled exchange IC50 (5 min) is? The molecule is C=CC(=O)N1C[C@@H](C)N(c2nc(=O)n(-c3c(C(C)C)ncnc3C(C)C)c3nc(-c4ccccc4F)c(Cl)cc23)[C@@H](C)C1
[A] 0.035 | nda μM

[Q] So what does the record say about Coupled exchange IC50 (5 min) for C=CC(=O)N1CCN(c2nc(=O)n(-c3c(OC)ncnc3C(C)C)c3nc(-c4ccccc4F)c(Cl)cc23)[C@@H](C)C1 [Example 54-107] ?
[A] 0.159 | nda μM

All figures here come from patent US11090304B2.
